# system_under_test: HLA-A*03:01
# protocol_summary: IEDB peptide-MHC binding, purified MHC/competitive/fluorescence; filed as Kd, often an IC50 or EC50 that approximates it; bounds were set here for any values at or beyond the usual limits of such assays
# conditions: source organism: Yersinia pestis Nepal516
Below, each of the sequences is paired with its reported Kd value.
Number only, in nM; omit the unit.

What measured Kd goes with `STIVWSSRY` ?
3500

Please examine the following record next.
What measured Kd goes with `FVMSCKLLY` ?
1850

* * *

# system_under_test: HLA-B*15:01
# protocol_summary: IEDB peptide-MHC binding, purified MHC/direct/fluorescence; filed as Kd, often an IC50 or EC50 that approximates it; bounds were set here for any values at or beyond the usual limits of such assays
# conditions: source organism: Bacillus anthracis
metric: pKd
Reminder that pKd means the negative base-10 logarithm of the concentration expressed in mol/L.

What measured pKd goes with `TVIRFWHAM` ?
7.68

* * *

# system_under_test: HLA-B*58:01
# protocol_summary: IEDB peptide-MHC binding, purified MHC/direct/fluorescence; filed as Kd, often an IC50 or EC50 that approximates it; bounds were set here for any values at or beyond the usual limits of such assays
# conditions: source organism: Entamoeba histolytica
pKd: −log10 of the molar value.
metric: pKd

What measured pKd goes with `KLMPGSIYV` ?
≤ 4.70

* * *

# system_under_test: HLA-B*83:01
# protocol_summary: IEDB peptide-MHC binding, purified MHC/competitive/fluorescence; filed as Kd, often an IC50 or EC50 that approximates it; bounds were set here for any values at or beyond the usual limits of such assays
# conditions: source organism: Entamoeba histolytica HM-1:IMSS
pKd: −log10 of the molar value.
metric: pKd

What measured pKd goes with `KLMPGSIYV` ?
≤ 5.30

* * *

# system_under_test: HLA-A*30:02
# protocol_summary: IEDB peptide-MHC binding, purified MHC/competitive/radioactivity; filed as Kd, often an IC50 or EC50 that approximates it; bounds were set here for any values at or beyond the usual limits of such assays
# conditions: source organism: Mammarenavirus tacaribeense
metric: Kd

Kindly state the measured Kd obtained for `FVAAALHNV` with HLA-A*30:02.
≥ 76.9 µM

* * *

# system_under_test: HLA-B*40:01
# protocol_summary: IEDB peptide-MHC binding, purified MHC/competitive/radioactivity; filed as Kd, often an IC50 or EC50 that approximates it; bounds were set here for any values at or beyond the usual limits of such assays
# conditions: source organism: Mammarenavirus machupoense
Below, each of the sequences is paired with its reported Kd value.
Number only, in µM; omit the unit.

Kindly state the measured Kd obtained for `RECYAQRFYL` with HLA-B*40:01.
9.58

Please examine the following record next.
Kindly state the measured Kd obtained for `KEKAPDVGVL` with HLA-B*40:01.
1.05

* * *

# system_under_test: HLA-B*07:02
# protocol_summary: IEDB peptide-MHC binding, purified MHC/competitive/fluorescence; bounds were set here for any values at or beyond the usual limits of such assays
# conditions: source organism: Sudan ebolavirus
metric: IC50

What measured IC50 goes with `GPCPGDYAF` ?
≥ 722 µM

* * *

# system_under_test: HLA-A*02:03
# protocol_summary: IEDB peptide-MHC binding, purified MHC/competitive/fluorescence; filed as Kd, often an IC50 or EC50 that approximates it; bounds were set here for any values at or beyond the usual limits of such assays
# conditions: source organism: Vibrio parahaemolyticus AQ3810
pKd: −log10 of the molar value.
metric: pKd

What measured pKd goes with `SSRGYSAIW` ?
≤ 4.70

* * *

# system_under_test: HLA-A*01:01
# protocol_summary: IEDB peptide-MHC binding, purified MHC/competitive/fluorescence; filed as Kd, often an IC50 or EC50 that approximates it; bounds were set here for any values at or beyond the usual limits of such assays
# conditions: source organism: Escherichia coli 536
metric: Kd

What measured Kd goes with `ISRNTVKRY` ?
≥ 20 µM

* * *

# system_under_test: HLA-B*58:01
# protocol_summary: IEDB peptide-MHC binding, purified MHC/competitive/fluorescence; filed as Kd, often an IC50 or EC50 that approximates it; bounds were set here for any values at or beyond the usual limits of such assays
# conditions: source organism: Salmonella enterica subsp. enterica serovar Typhi
metric: Kd (nM)
Number only, in nM; omit the unit.

What measured Kd goes with `ITSKEVFTY` ?
25.6

* * *

# system_under_test: HLA-B*39:01
# protocol_summary: IEDB peptide-MHC binding, purified MHC/direct/fluorescence; filed as Kd, often an IC50 or EC50 that approximates it; bounds were set here for any values at or beyond the usual limits of such assays
# conditions: source organism: Camelpox virus M-96
metric: pKd
Reminder that pKd means the negative base-10 logarithm of the concentration expressed in mol/L.

What measured pKd goes with `YHDDDNTTT` ?
6.46

* * *

# system_under_test: HLA-C*14:02
# protocol_summary: IEDB peptide-MHC binding, purified MHC/direct/fluorescence; filed as Kd, often an IC50 or EC50 that approximates it; bounds were set here for any values at or beyond the usual limits of such assays
# conditions: source organism: Listeria monocytogenes EGD-e
pKd: −log10 of the molar value.
metric: pKd

What measured pKd goes with `RMMGKTNPL` ?
≥ 9.00

* * *

# system_under_test: HLA-A*01:01
# protocol_summary: IEDB peptide-MHC binding, purified MHC/competitive/radioactivity; filed as Kd, often an IC50 or EC50 that approximates it; bounds were set here for any values at or beyond the usual limits of such assays
# conditions: source organism: Dengue virus 1 Brazil/97-11/1997
metric: Kd

Kindly state the measured Kd obtained for `MTGTLAVFLL` with HLA-A*01:01.
≥ 34.6 µM

* * *

# system_under_test: HLA-A*33:01
# protocol_summary: IEDB peptide-MHC binding, purified MHC/competitive/radioactivity; filed as Kd, often an IC50 or EC50 that approximates it; bounds were set here for any values at or beyond the usual limits of such assays
# conditions: source organism: Vaccinia virus Copenhagen
Below, each of the sequences is paired with its reported pKd value.
Reminder that pKd means the negative base-10 logarithm of the concentration expressed in mol/L.

What measured pKd goes with `KSVLDIISSK` ?
4.70

What measured pKd goes with `FLIVSLCPT` ?
5.18

---
What measured pKd goes with `STSPTRTWK` ?
5.19

* * *

# system_under_test: HLA-B*53:01
# protocol_summary: IEDB peptide-MHC binding, purified MHC/competitive/radioactivity; filed as Kd, often an IC50 or EC50 that approximates it; bounds were set here for any values at or beyond the usual limits of such assays
# conditions: source organism: Dengue virus 3 Sri Lanka/1266/2000
metric: Kd (µM)
Number only, in µM; omit the unit.

What measured Kd goes with `MMILPAALAF` ?
6.48

* * *

# system_under_test: HLA-A*32:01
# protocol_summary: IEDB peptide-MHC binding, purified MHC/competitive/radioactivity; filed as Kd, often an IC50 or EC50 that approximates it; bounds were set here for any values at or beyond the usual limits of such assays
# conditions: source organism: Mammarenavirus guanaritoense
metric: Kd (nM)
Number only, in nM; omit the unit.

What measured Kd goes with `CTLEGVWAPF` ?
44.2

* * *

# system_under_test: HLA-A*02:16
# protocol_summary: IEDB peptide-MHC binding, purified MHC/competitive/fluorescence; filed as Kd, often an IC50 or EC50 that approximates it; bounds were set here for any values at or beyond the usual limits of such assays
# conditions: source organism: Francisella tularensis subsp. holarctica OSU18
metric: Kd (nM)
Number only, in nM; omit the unit.

What measured Kd goes with `FGLLPEHYV` ?
60.1

* * *

# system_under_test: HLA-B*51:01
# protocol_summary: IEDB peptide-MHC binding, purified MHC/competitive/radioactivity; filed as Kd, often an IC50 or EC50 that approximates it; bounds were set here for any values at or beyond the usual limits of such assays
# conditions: source organism: Vaccinia virus Copenhagen
metric: Kd

What measured Kd goes with `FLIVSLCPT` ?
≥ 28.6 µM

* * *

# system_under_test: HLA-B*08:01
# protocol_summary: IEDB peptide-MHC binding, purified MHC/direct/fluorescence; filed as Kd, often an IC50 or EC50 that approximates it; bounds were set here for any values at or beyond the usual limits of such assays
# conditions: source organism: Ravn virus - Ravn, Kenya, 1987
pKd: −log10 of the molar value.
metric: pKd

What measured pKd goes with `ALFHKVQSY` ?
≤ 4.70

* * *

# system_under_test: HLA-B*27:05
# protocol_summary: IEDB peptide-MHC binding, purified MHC/direct/fluorescence; filed as Kd, often an IC50 or EC50 that approximates it; bounds were set here for any values at or beyond the usual limits of such assays
# conditions: source organism: West Nile virus
metric: Kd

A selection of reference data follows.
What measured Kd goes with `GHGTVVLEL` ?
≥ 20 µM

What measured Kd goes with `KCRVKMEKL` ?
≥ 20 µM

---
What measured Kd goes with `TEGEGRVIL` ?
≥ 20 µM

* * *

# system_under_test: HLA-B*18:01
# protocol_summary: IEDB peptide-MHC binding, purified MHC/direct/fluorescence; filed as Kd, often an IC50 or EC50 that approximates it; bounds were set here for any values at or beyond the usual limits of such assays
# conditions: source organism: Yellow fever virus
metric: Kd

What measured Kd goes with `GSRAYRNAL` ?
≥ 20 µM

Please examine the following record next.
What measured Kd goes with `SCRVKLSAL` ?
≥ 20 µM

Origin of values: the Immune Epitope Database (IEDB)
